This section presents compounds with their documented fold change (FC) values.
assayComment: Inhibition of hedgehog signaling pathway in mouse Ptch+/- p53-/- medulloblastoma cells assessed as inhibition of receptor-mediated Gli1 transcriptional activity at antiproliferative IC90 concentration after 24 hrs by RT-PCR analysis relative to control

[in] Let me know recorded fold change (FC) for `CC1(CCCCCCCn2ncn(-c3ccc(N4CCN(c5ccc(OC[C@@H]6CO[C@@](Cn7cncn7)(c7ccc(Cl)cc7Cl)O6)cc5)CC4)cc3)c2=O)N=N1` , thanks.
[out] > 0.45

###

measuredTarget: Vascular endothelial growth factor receptor 2 (Homo sapiens)
assayComment: Inhibition of VEGFR2 glycosylation in human HUVEC cells at 2 uM after 24 hrs by Western blot analysis
Type: cell-based
Activity calls are given as the source filed them. The rule behind the calls is not given here.
Choose one outcome from this list and give only that: T (active), F (inactive)

Field: example entries. Status: answers known.
>  <compound>
CC/C=C\CCn1ncn(-c2ccc(N3CCN(c4ccc(OC[C@@H]5CO[C@@](Cn6cncn6)(c6ccc(Cl)cc6Cl)O5)cc4)CC3)cc2)c1=O

>  <measuredTarget>
Vascular endothelial growth factor receptor 2 (Homo sapiens)

>  <categoryLabel>
F

$$$$
>  <compound>
CCC(C)n1ncn(-c2ccc(N3CCN(c4ccc(OCC5COC(Cn6cncn6)(c6ccc(Cl)cc6Cl)O5)cc4)CC3)cc2)c1=O (stereo unspecified)

>  <measuredTarget>
Vascular endothelial growth factor receptor 2 (Homo sapiens)

>  <categoryLabel>
T

$$$$
>  <compound>
CC[C@@H](C)n1ncn(-c2ccc(N3CCN(c4ccc(OC[C@@H]5CO[C@](Cn6cncn6)(c6ccc(Cl)cc6Cl)O5)cc4)CC3)cc2)c1=O

>  <measuredTarget>
Vascular endothelial growth factor receptor 2 (Homo sapiens)

>  <categoryLabel>
F

$$$$
>  <compound>
CC[C@H](C)n1ncn(-c2ccc(N3CCN(c4ccc(OC[C@H]5CO[C@](Cn6cncn6)(c6ccc(Cl)cc6Cl)O5)cc4)CC3)cc2)c1=O

>  <measuredTarget>
Vascular endothelial growth factor receptor 2 (Homo sapiens)

>  <categoryLabel>
T

$$$$
>  <compound>
CC(C)n1ncn(-c2ccc(N3CCN(c4ccc(OC[C@@H]5CO[C@@](Cn6cncn6)(c6ccc(Cl)cc6Cl)O5)cc4)CC3)cc2)c1=O

>  <measuredTarget>
Vascular endothelial growth factor receptor 2 (Homo sapiens)

>  <categoryLabel>
F

$$$$

[in] Please indicate how the test categorized CCCC(C)n1ncn(-c2ccc(N3CCN(c4ccc(OC[C@@H]5CO[C@@](Cn6cncn6)(c6ccc(Cl)cc6Cl)O5)cc4)CC3)cc2)c1=O (mixture of isomers) .
[out] T

###

measuredTarget: Vascular endothelial growth factor receptor 2 (Homo sapiens)
assayComment: Inhibition of VEGFR2 glycosylation in human HUVEC cells at 2 uM after 24 hrs by Western blot analysis
Assay type: cell-based
Calls of active or inactive are those of the source. The rule behind the calls is not given here.
measurementType: inhibition

>  <sampleSmiles>
O=c1n(-c2ccc(N3CCN(c4ccc(OC[C@@H]5CO[C@@](Cn6cncn6)(c6ccc(Cl)cc6Cl)O5)cc4)CC3)cc2)cnn1CC1CCCC1

>  <measValue>
Active

$$$$
>  <sampleSmiles>
CCCn1ncn(-c2ccc(N3CCN(c4ccc(OC[C@@H]5CO[C@@](Cn6cncn6)(c6ccc(Cl)cc6Cl)O5)cc4)CC3)cc2)c1=O

>  <measValue>
Active

$$$$

###

measuredTarget: Vascular endothelial growth factor receptor 2 (Homo sapiens)
assayComment: Inhibition of VEGFR2 glycosylation in human HUVEC cells at 2 uM after 24 hrs by Western blot analysis
Type: cell-based
The source made the active and inactive calls. The calls are words filed in the database; no cut-off is given here.
Respond using exactly one of the listed classes: class 1 for active, class 0 for inactive

The following compounds have reported results that may help.
>  <sampleSmiles>
CCC(CC)n1ncn(-c2ccc(N3CCN(c4ccc(OC[C@@H]5CO[C@@](Cn6cncn6)(c6ccc(Cl)cc6Cl)O5)cc4)CC3)cc2)c1=O

>  <measuredTarget>
Vascular endothelial growth factor receptor 2 (Homo sapiens)

>  <categoryLabel>
class 1

$$$$
>  <sampleSmiles>
CC[C@@H](C)n1ncn(-c2ccc(N3CCN(c4ccc(OC[C@H]5CO[C@@](Cn6cncn6)(c6ccc(Cl)cc6Cl)O5)cc4)CC3)cc2)c1=O

>  <measuredTarget>
Vascular endothelial growth factor receptor 2 (Homo sapiens)

>  <categoryLabel>
class 0

$$$$
>  <sampleSmiles>
CC1(CCCCCCCn2ncn(-c3ccc(N4CCN(c5ccc(OC[C@@H]6CO[C@@](Cn7cncn7)(c7ccc(Cl)cc7Cl)O6)cc5)CC4)cc3)c2=O)N=N1

>  <measuredTarget>
Vascular endothelial growth factor receptor 2 (Homo sapiens)

>  <categoryLabel>
class 0

$$$$
>  <sampleSmiles>
C#CCCCn1ncn(-c2ccc(N3CCN(c4ccc(OC[C@H]5CO[C@](Cn6cncn6)(c6ccc(Cl)cc6Cl)O5)cc4)CC3)cc2)c1=O

>  <measuredTarget>
Vascular endothelial growth factor receptor 2 (Homo sapiens)

>  <categoryLabel>
class 0

$$$$
>  <sampleSmiles>
CC(C)Cn1ncn(-c2ccc(N3CCN(c4ccc(OC[C@@H]5CO[C@@](Cn6cncn6)(c6ccc(Cl)cc6Cl)O5)cc4)CC3)cc2)c1=O

>  <measuredTarget>
Vascular endothelial growth factor receptor 2 (Homo sapiens)

>  <categoryLabel>
class 1

$$$$

In the following, a different compound is considered.
[in] Which outcome did this test record for the compound `O=C(c1ccccc1)c1ccc(OCCCCCCn2ncn(-c3ccc(N4CCN(c5ccc(OC[C@@H]6CO[C@@](Cn7cncn7)(c7ccc(Cl)cc7Cl)O6)cc5)CC4)cc3)c2=O)cc1` ?
[out] class 0
